TEST TARGET: hGLP-1R (Homo sapiens, UniProt P43220)
Sequence (P43220 24-463): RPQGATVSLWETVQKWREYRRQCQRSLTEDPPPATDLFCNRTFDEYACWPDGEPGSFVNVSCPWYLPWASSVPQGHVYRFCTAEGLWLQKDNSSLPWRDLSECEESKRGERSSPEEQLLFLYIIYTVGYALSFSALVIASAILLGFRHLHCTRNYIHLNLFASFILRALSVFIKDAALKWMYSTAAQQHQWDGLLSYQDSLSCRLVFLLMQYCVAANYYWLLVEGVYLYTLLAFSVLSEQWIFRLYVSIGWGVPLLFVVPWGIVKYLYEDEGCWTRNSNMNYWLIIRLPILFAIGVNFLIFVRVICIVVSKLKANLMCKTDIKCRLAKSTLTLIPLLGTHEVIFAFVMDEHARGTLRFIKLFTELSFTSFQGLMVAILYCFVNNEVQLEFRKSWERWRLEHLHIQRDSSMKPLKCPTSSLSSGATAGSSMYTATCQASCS
ASSAY PROTOCOL: cell-based or functional assay
Kindly state Relative cAMP EC50 for each of the entries shown.
Answers are plain numbers, in nM.

Batch: Relative cAMP EC50 for all items listed.
1. YXQGTXTSDYXILLDKKAQXAFIEYLEEGGPSSGAPPPS (synthetic construct; SITE 2: note = 2-Aminoisobutyric Acid; SITE 6: note = alpha-methyl-L-phenylalanine; SITE 11: note = alpha-methyl-L-serine; SITE 17: note = Lysine is chemically modified through conjugation of the epsilon-amino group of the Lysine side chain with (2-[2-(2-Amino-ethoxy)-ethoxy]-ac)) [Example 393]
2. YXQGTFTSDYSKXLDKKAQXAFVQWLLEGGPSSGEPPPSEG (not fully specified; synthetic construct; SITE 2: note = 2-Aminoisobutyric Acid; SITE 13: note = alpha-methyl-leucine; SITE 17: note = Lysine is chemically modified through conjugation of the epsilon-amino group of the Lysine side chain with (2-[2-(2-Amino-ethoxy)-ethoxy]-acetyl)-(gamma-Glu)-CO-(CH2) 18-CO2H; SITE 20: n) [Example 343]
3. YXQGTFTSDXSQXLDKKAQXAFIEXLIEXGPSSGAPPPSGTE (acylated Lys AEEA-γGlu-C18 diacid; non-natural residues; C-terminal amide; synthetic construct; SITE 2: note = 2-Aminoisobutyric Acid; SITE 10: note = 3-(4-Pyridyl)-L-alanine; SITE 13: note = alpha-methyl-leucine; SITE 17: note = Lysine is chemically modified through conjugation of the epsilon-amino group of the Lysine side chain with (2-[2-(2-Amino-ethoxy)-ethoxy]-acetyl)) [Example 1116]
4. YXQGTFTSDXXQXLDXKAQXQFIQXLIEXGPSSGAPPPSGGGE (not fully specified; non-natural residues; γ-Glu-C18 diacid acyl; C-terminal amide; synthetic construct; SITE 2: note = 2-Aminoisobutyric Acid; SITE 10: note = 3-(4-Pyridyl)-L-alanine; SITE 11: note = alpha-methyl-L-serine; SITE 13: note = alpha-methyl-leucine; SITE 16: note = L-ornithine; SITE 17: note = Lysine is chemically modified through conjugation of the epsilon-amino group) [Example 1137]
5. YXQGTXTSDXSIXLDKKAQXXFIEYLAEGGPSSGEPPPEGSEE (synthetic construct; SITE 2: note = 2-Aminoisobutyric Acid; SITE 6: note = alpha-methyl-2-fluoro-L-phenylalanine; SITE 10: note = 3-(4-Pyridyl)-L-alanine; SITE 13: note = alpha-methyl-leucine; SITE 17: note = Lysine is chemically modified through conjugation of the epsilon-amino group of the Lysine) [Example 650 (SEQ ID NO: 656)]

Result string:
1: 0.211; 2: 1.31; 3: 4.63; 4: 0.582; 5: 0.649

Fill in Relative cAMP EC50 for each of the 6 binders listed.
1. YXQGTFTSDFSXXLDKKAQXAFIEYLLAGGPSSGAPPPSGS (synthetic construct; SITE 2: note = 2-Aminoisobutyric Acid; SITE 12: note = L-ornithine; SITE 13: note = alpha-methyl-leucine; SITE 17: note = Lysine is chemically modified through conjugation of the epsilon-amino group of the Lysine side chain with (2-[2-(2-Amino-ethoxy)-ethoxy]-acetyl)-(gamma-Glu)) [Example 76]
2. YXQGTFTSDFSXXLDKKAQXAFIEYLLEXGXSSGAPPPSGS (Aib, Orn, αMeL, 4Pal; AEEA-γGlu-C18 diacid on Lys; amide; synthetic construct; SITE 2: note = 2-Aminoisobutyric Acid; SITE 12: note = L-ornithine; SITE 13: note = alpha-methyl-leucine; SITE 17: note = Lysine is chemically modified through conjugation of the epsilon-amino group of the Lysine side chain with (2-[2-(2-Amino-ethoxy)-ethoxy]-acetyl)-(gamma-Glu)) [Example 242]
3. YXQGTFTSDFSXXLDKKAQXAFIEYLLEXGPSSGEPPPGEG (synthetic construct; SITE 2: note = 2-Aminoisobutyric Acid; SITE 12: note = L-ornithine; SITE 13: note = alpha-methyl-leucine; SITE 17: note = Lysine is chemically modified through conjugation of the epsilon-amino group of the Lysine side chain with (2-[2-(2-Amino-ethoxy)-ethoxy]-acetyl)2-(gamma-Glu)) [Example 69]
4. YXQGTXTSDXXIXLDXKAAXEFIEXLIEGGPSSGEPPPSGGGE (synthetic construct; SITE 2: note = 2-Aminoisobutyric Acid; SITE 6: note = alpha-methyl-2-fluoro-L-phenylalanine; SITE 10: note = 3-(4-Pyridyl)-L-alanine; SITE 11: note = alpha-methyl-L-serine; SITE 13: note = alpha-methyl-leucine; SITE 16: note = L-ornithine; SITE 17: note = Lysine is chemically mo) [Example 748]
5. YXQGTFTSDFSXXLDKKAQXAFIEYLLEAGPSSGHPPPSGS (synthetic construct; SITE 2: note = 2-Aminoisobutyric Acid; SITE 12: note = L-ornithine; SITE 13: note = alpha-methyl-leucine; SITE 17: note = Lysine is chemically modified through conjugation of the epsilon-amino group of the Lysine side chain with (2-[2-(2-Amino-ethoxy)-ethoxy]-acetyl)2-(gamma-Glu)) [Example 253]
6. YXQGTXTSDXSILLDKKAQXAFIEYLEEGGPSSGAPPPSGEGE (non-natural residues, lysine acylation, C-terminal amide; synthetic construct; SITE 2: note = 2-Aminoisobutyric Acid; SITE 6: note = alpha-methyl-2-fluoro-L-phenylalanine; SITE 10: note = 3-(4-Pyridyl)-L-alanine; SITE 17: note = Lysine is chemically modified through conjugation of the epsilon-amino group of the Lysine side chain with (gamma-Glu)2-CO-(CH2)1) [Example 621]

Result string:
[2.25, 3.42, 3.25, 0.258, 2.2, 1.28]
